# Target Entity: human mGluR5a receptor (Homo sapiens)
# Construct: cDNA subcloned into pcDNA3.1(-)
# Method Summary: Cell-based functional Ca2+ mobilization assay (FDSS), potentiation of glutamate EC20 response
# Condition Description: HEK cells transfected with human mGluR5 (H10H or H12H); in presence of EC20 glutamate; read-out: pEC50 (converted)
# Method: Human embryonic kidney (HEK) cells transfected with rat mGluR5 were plated in clear bottom assay plates for assay in a Functional Drug Screening System (FDSS). […] After establishment of a fluorescence baseline for twelve seconds, the compounds of the present invention were added to the cells, and the response in cells was measured. […] Five minutes later, an mGluR5 agonist (e.g., glutamate, 3,5-dihydroxyphenylglycine, or quisqualate) was added to the cells, and the response of the cells was measured. […]
Endpoint: EC50 (nM)

CN(C)c1cccc(N2CCn3nc(COc4cccc(F)c4)cc3C2=O)n1 [Example 316]	40.7

A = Cc1ccccc1N1CCn2nc(COc3ccc(F)cc3)cc2C1=O [Example 223]
B = COc1nc(N2CCn3nc(COc4ccccc4)cc3C2=O)ccc1C [Example 108]
C = Cc1ccccc1N1C(=O)c2cc(COc3ccccc3)nn2C[C@H]1C [Example 154]
INPUT: Ordering criterion: EC50; begin with the maximum. Form entry: labels listed in requested order.
OUTPUT: A, C, B
(A: 100 nM, C: 29.5 nM, B: 17.8 nM)

---

# Target Entity: human mGluR5a receptor (Homo sapiens)
# Construct: cDNA subcloned into pcDNA3.1(-)
# Method Summary: Cell-based functional Ca2+ mobilization assay (FDSS), potentiation of glutamate EC20 response
# Condition Description: maximum % effect in concentration-response curve, as percent of response to maximally effective glutamate
Endpoint: Emax (%)

COc1ccc(C)c(N2CCn3nc(COc4ccccc4)cc3C2=O)n1 [Example 109]	63
CC1CN(c2ccc(F)cc2)C(=O)c2cc(COc3ccccc3)nn21 (single isomer, unassigned) [Example 130]	71
O=C1c2cc(COc3ccccc3)nn2C(F)CN1c1ccc(F)cc1 (racemic) [Example 271]	66
CC1CN(c2ccc(F)cn2)C(=O)c2cc(COc3ccc(F)cc3)nn21 (racemic) [Example 237]	52
Cc1nccc(N2CCn3nc(COc4ccccc4)cc3C2=O)n1 [Example 94]	65

---

# Target Entity: human mGluR5a receptor (Homo sapiens, UniProt P41594)
# Construct: cDNA subcloned into pcDNA3.1(-)
# Sequence (P41594 21-1180 isoform P41594-2 limits assumed): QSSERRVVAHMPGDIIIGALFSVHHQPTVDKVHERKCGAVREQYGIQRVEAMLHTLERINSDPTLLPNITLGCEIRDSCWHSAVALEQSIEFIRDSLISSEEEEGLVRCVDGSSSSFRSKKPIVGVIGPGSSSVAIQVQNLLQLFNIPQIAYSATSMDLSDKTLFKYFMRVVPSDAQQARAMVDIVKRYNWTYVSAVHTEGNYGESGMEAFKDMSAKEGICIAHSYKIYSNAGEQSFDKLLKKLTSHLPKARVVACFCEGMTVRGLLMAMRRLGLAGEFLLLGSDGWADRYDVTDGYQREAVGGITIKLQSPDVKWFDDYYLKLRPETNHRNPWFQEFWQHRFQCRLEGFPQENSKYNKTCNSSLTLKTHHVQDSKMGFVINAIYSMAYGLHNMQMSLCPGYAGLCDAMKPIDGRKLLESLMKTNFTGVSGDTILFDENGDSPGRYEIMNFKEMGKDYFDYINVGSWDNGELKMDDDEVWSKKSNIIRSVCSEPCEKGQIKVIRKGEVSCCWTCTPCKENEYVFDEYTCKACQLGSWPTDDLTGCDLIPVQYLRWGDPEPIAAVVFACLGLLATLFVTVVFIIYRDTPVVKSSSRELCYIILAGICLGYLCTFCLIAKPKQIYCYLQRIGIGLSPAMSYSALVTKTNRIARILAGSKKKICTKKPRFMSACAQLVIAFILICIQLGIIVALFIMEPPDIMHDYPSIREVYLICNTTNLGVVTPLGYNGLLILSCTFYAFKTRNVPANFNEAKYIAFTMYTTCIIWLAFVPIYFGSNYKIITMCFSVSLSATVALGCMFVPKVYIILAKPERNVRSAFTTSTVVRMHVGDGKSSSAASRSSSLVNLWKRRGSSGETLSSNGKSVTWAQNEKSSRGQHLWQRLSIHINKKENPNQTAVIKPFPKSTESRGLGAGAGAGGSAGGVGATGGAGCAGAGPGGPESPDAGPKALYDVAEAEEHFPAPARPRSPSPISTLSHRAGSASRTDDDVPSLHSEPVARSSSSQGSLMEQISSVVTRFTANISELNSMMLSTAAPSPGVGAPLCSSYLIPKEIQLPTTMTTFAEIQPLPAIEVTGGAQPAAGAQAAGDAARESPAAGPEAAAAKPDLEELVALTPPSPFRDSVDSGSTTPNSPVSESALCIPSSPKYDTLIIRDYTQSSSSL
# Method Summary: Cell-based functional Ca2+ mobilization assay (FDSS), potentiation of glutamate EC20 response
# Condition Description: maximum % effect in concentration-response curve, as percent of response to maximally effective glutamate
Endpoint: Emax (%)

Sample records with Emax:
Cc1ccnc(N2CCn3nc(COc4ccccc4)cc3C2=O)c1 [Example 17]	72
Cc1ccc(OCc2cc3n(n2)CCN(c2ccc(F)cc2)C3=O)nc1 [Example 183]	15
CN(C)c1ccnc(OCc2cc3n(n2)CCN(c2ccc(F)cc2)C3=O)c1 [Example 312]	25
CNc1cccc(N2CCn3nc(COc4ccccc4)cc3C2=O)n1 [Example 278]	56
Cc1cnc(C)c(N2CCn3nc(COc4ccccc4)cc3C2=O)n1 [Example 120]	67
COc1nccnc1N1C(=O)c2cc(COc3ccccc3)nn2C[C@H]1C [Example 149]	64
Cc1nc(N2CC(C)n3nc(COc4ccccc4)cc3C2=O)ccc1F (stereo not shown) [Example 134]	70
O=C1c2cc(COc3ccccc3)nn2CCN1CC(F)(F)F [Example 24]	78

I = Cc1cc(N2C(=O)c3cc(COc4ccccc4)nn3C[C@H]2C)ncc1F [Example 155]
II = Cc1cccc(OCc2cc3n(n2)C(C)CN(c2ccc(F)cc2)C3=O)c1 (stereo not shown) [Example 242]
INPUT: When their Emax values are compared, which is larger, I or II ? The response must carry the label of the picked entry.
OUTPUT: I
(I: 62%, II: 21%)
